system: β-glucuronidase in rat colon feces; experiment: Rat colon fecal homogenate stability assay; type: in vitro ADME; settings: male, rat, rat colon fecal supernatant-homogenate, in vitro half-life in rat fecal supernatant-homogenate, anaerobic, 10 μM substrate; individual values when assay repeated; read-out: T½
REPORTED_ENDPOINT: half-life at 10 μM (min)

[Q] Item: Cc1ccc(O[C@@H]2O[C@H](C(=O)O)[C@@H](O)[C@H](O)[C@H]2O)c(N(C)C(=O)n2ccc3c(N(C)[C@H]4CN(C(=O)CC#N)CC[C@H]4C)ncnc32)c1 [Compound III-3] Test system: β-glucuronidase in rat colon feces Read-out: half-life at 10 μM Value: ?
[A] 20

[Q] Item: C[C@@H]1CCN(C(=O)CC#N)C[C@@H]1N(C)c1ncnc2c1ccn2C(=O)N(C)c1cc([N+](=O)[O-])ccc1O[C@@H]1O[C@H](C(=O)O)[C@@H](O)[C@H](O)[C@H]1O [Compound III-1] Test system: β-glucuronidase in rat colon feces Read-out: half-life at 10 μM Value: ?
[A] 2

(I) C[C@@H]1CCN(C(=O)CC#N)C[C@@H]1N(C)c1ncnc2c1ccn2C(=O)N(C)CCN(C)C(=O)O[C@@H]1O[C@H](C(=O)O)[C@@H](O)[C@H](O)[C@H]1O [Compound II-1]
(II) C[C@@H]1CCN(C(=O)CC#N)C[C@@H]1N(C)c1ncnc2c1ccn2C(=O)N(C)c1ccccc1O[C@@H]1O[C@H](C(=O)O)[C@@H](O)[C@H](O)[C@H]1O [Compound III-2]
[Q] Lab note: record which item had the higher half-life at 10 μM, I or II . Selection: enter the item's label.
[A] II
